Hello, the source for this data is PubChem BioAssay AID624330, in case you need it.

# System Name: Rac GTPase-activating protein 1 (Homo sapiens)
# Experimental Details: blockers of MgcRacGAP-driven Rac1 GTP hydrolysis – biochemical, ADP Hunter fluorescence, primary and confirmatory, confirmation (AID 624330);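 note: fluorescence reports GDP produced by GAP-driven GTP hydrolysis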
# Measurement Parameters: MgcRacGAP-stimulated Rac1 GTP hydrolysis, at 30 µM, active compounds read high, GST-tagged Rac1 F28L mutant substrate
The whole screen tested about 340,000 compounds, of which about 2,100 (0.62%) were called active. These entries were drawn from the full list. Potency and affinity values are given separately.
Recorded Endpoint: inhibition (%)
Give bare numbers, in %.

Consider the following illustrative entries.
[[record]]
compound = "Cc1nc2c(ncn2-c2ccccc2)c(=O)n1NC(=O)CN1CCOCC1"
recorded_endpoint = "inhibition"
unit_label = "%"
observed_result = 6.81

[[record]]
compound = "O=C(/C=C/c1ccco1)NCC1CCCO1 (stereo unspecified)"
recorded_endpoint = "inhibition"
unit_label = "%"
observed_result = 19.1

[[record]]
compound = "CC1(C)C(=O)Nc2ccccc2N1C(=O)CN1C(=O)NC(CCc2ccccc2)C1=O (stereo unspecified)"
recorded_endpoint = "inhibition"
unit_label = "%"
observed_result = 2.92

[[record]]
compound = "COc1ccccc1NC(=O)c1ccc2c(c1)CCN2S(C)(=O)=O"
recorded_endpoint = "inhibition"
unit_label = "%"
observed_result = 6.1

[[record]]
compound = "COc1ccc(C(=O)NCC(=O)OCc2ccc(Br)cc2)cc1"
recorded_endpoint = "inhibition"
unit_label = "%"
observed_result = 11.1


Consider the additional compound presented here.
So, Cc1ccc(C(=O)NCCCN2CCOCC2)cc1S(=O)(=O)N1CCCCC1 ? Its inhibition was 1.84

----------
# System Name: Rac GTPase-activating protein 1 (Homo sapiens)
# Experimental Details: blockers of MgcRacGAP-driven Rac1 GTP hydrolysis – biochemical, ADP Hunter fluorescence, primary and confirmatory, confirmation (AID 624330);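 note: fluorescence reports GDP produced by GAP-driven GTP hydrolysis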
# Measurement Parameters: MgcRacGAP-stimulated Rac1 GTP hydrolysis, at 30 µM, active compounds read high, GST-tagged Rac1 F28L mutant substrate
The whole screen tested about 340,000 compounds, of which about 2,100 (0.62%) were called active. The list is a sample of the results. Entries with a potency or affinity are not part of this list.
Recorded Endpoint: inhibition (%)
Give bare numbers, in %.

Dear reader, for each entry below, please note its inhibition.
1. COc1ccccc1S(=O)(=O)Cc1ccc(C(=O)NC2CCCCC2)o1
2. O=C(Cn1c(=O)cnc2ccccc21)Nc1cc(Cl)ccc1N1CCOCC1
3. Cn1nnc(NC(=O)c2ccc(Br)o2)n1
4. CN1CCN(/N=C/c2ccc(N(c3ccccc3)c3ccccc3)cc2)CC1
5. Cc1csc(=O)n1CC(=O)OCC(=O)NCc1ccc(Cl)cc1Cl
6. CCN(CC)c1ccc(/C=N/N2CCN(c3ccccn3)CC2)cc1

[5.84, -4.21, 11.1, 15.3, 8.92, 13.5]

For each of the items listed, what is its inhibition?
1. COc1ccc(Br)cc1CN1CCCCCC1
2. COc1ccc(NC(=O)CSc2ccc3ccccc3c2)cc1S(=O)(=O)N1CCCCC1
3. C=CCc1ccc(OCCOCCN(C)C)c(OC)c1
4. CC(=O)Nc1cc(S(=O)(=O)Nc2ccc(C)cc2)c(C)cc1C

25.6
8.21
11.5
11.6

----------
What inhibition was measured for each of the following?
# System Name: Rac GTPase-activating protein 1 (Homo sapiens)
# Experimental Details: blockers of MgcRacGAP-driven Rac1 GTP hydrolysis – biochemical, ADP Hunter fluorescence, primary and confirmatory, confirmation (AID 624330);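 note: fluorescence reports GDP produced by GAP-driven GTP hydrolysis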
# Measurement Parameters: MgcRacGAP-stimulated Rac1 GTP hydrolysis, at 30 µM, active compounds read high, GST-tagged Rac1 F28L mutant substrate
Among all 340,000 compounds or so, about 2,100 (0.62%) were called active. Not all results are given here. Potency and affinity values are given separately.
Give bare numbers, in %.

# example entries with known answers
[[record]]
compound = "COC(=O)C[C@@H]1C[C@@H]2c3cc(NC(=O)NC4CCCCC4)ccc3O[C@@H]2[C@H](CO)O1"
observed_result = 0.31

[[record]]
compound = "COc1cc(C)ccc1OCCOCCOc1c(C)cc(C)cc1Br"
observed_result = 3.98

[[record]]
compound = "COc1ccc(C2=NN(Cc3ccccc3)C3C(=O)NC(=O)C23)cc1 (stereo unspecified)"
observed_result = 1.11

[[record]]
compound = "CCC(C)n1c(=S)[nH]c2ccccc2c1=O (stereo unspecified)"
observed_result = 5.28


I need inhibition for every entry listed below, if you could help.
1. O=C(/C=C/c1ccco1)OCC(=O)c1ccc(OC(F)F)cc1
2. N/C(Cc1cccs1)=N\OC(=O)COc1ccc(Br)cc1
3. CCC(=O)c1ccc(OCc2ccc(C(=O)c3ccccc3)cc2)cc1
4. O=C1c2ccccc2NC(c2ccccc2)N1/N=C/c1ccccc1 (stereo unspecified)
5. CC(C)(C)C(=O)NCc1ccc(C(=O)CSc2nnc(C3CC3)n2C2CC2)s1

1. 7.34
2. 0.69
3. 6.28
4. 12.7
5. 8.51

Below is a list of compounds. For each, state its recorded inhibition.
1. Cc1ccc(/C=N/N2C(=O)c3ccccc3NC2c2ccc(C)cc2)cc1 (stereo unspecified)
2. COCCNC(=O)C(OC(=O)c1nsc(Cl)c1Cl)C(C)C (stereo unspecified)

1: 7.64; 2: 10.9

----------
# System Name: Rac GTPase-activating protein 1 (Homo sapiens) (UniProt Q9H0H5)
# Sequence (Q9H0H5 whole entry, looked up): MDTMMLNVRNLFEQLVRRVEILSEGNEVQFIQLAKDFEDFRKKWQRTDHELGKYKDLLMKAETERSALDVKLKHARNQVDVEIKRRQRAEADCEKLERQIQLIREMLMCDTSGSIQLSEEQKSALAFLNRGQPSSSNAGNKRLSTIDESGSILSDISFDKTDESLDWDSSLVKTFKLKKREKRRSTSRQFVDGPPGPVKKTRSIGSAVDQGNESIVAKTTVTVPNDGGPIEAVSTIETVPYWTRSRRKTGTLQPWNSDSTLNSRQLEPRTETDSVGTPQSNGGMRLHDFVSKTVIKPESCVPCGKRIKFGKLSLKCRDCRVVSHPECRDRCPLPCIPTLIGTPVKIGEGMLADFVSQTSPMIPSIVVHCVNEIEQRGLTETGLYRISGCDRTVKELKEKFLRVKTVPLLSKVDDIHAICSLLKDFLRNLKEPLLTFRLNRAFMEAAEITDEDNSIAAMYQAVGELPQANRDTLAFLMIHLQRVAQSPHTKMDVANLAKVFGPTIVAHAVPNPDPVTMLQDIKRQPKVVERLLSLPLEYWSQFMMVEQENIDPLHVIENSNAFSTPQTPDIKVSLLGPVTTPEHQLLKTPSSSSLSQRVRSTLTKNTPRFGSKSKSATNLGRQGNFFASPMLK
# Experimental Details: blockers of MgcRacGAP-driven Rac1 GTP hydrolysis – biochemical, ADP Hunter fluorescence, primary and confirmatory, confirmation (AID 624330);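 note: fluorescence reports GDP produced by GAP-driven GTP hydrolysis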
# Measurement Parameters: MgcRacGAP-stimulated Rac1 GTP hydrolysis, at 30 µM, active compounds read high, GST-tagged Rac1 F28L mutant substrate
About 2,100 (0.62%) of roughly 340,000 compounds were called active. Only a sample is shown. Potency and affinity values are given separately.
Recorded Endpoint: inhibition (%)
One number for each entry, in %.

Take a look at these entries with their results.
[[record]]
compound = "CCN(Cc1ccccc1)C1CCN(Cc2ccccc2)CC1"
unit_label = "%"
observed_result = -17.1

[[record]]
compound = "CCOc1ccc2nc(-c3ccccc3)nc(SCC(=O)Nc3ncc(C)s3)c2c1"
unit_label = "%"
observed_result = -5.25

[[record]]
compound = "COc1cc(OC)c(OC)cc1CN1CCN(c2ccccc2OC)CC1"
unit_label = "%"
observed_result = 19.5

[[record]]
compound = "COc1ccccc1CN1CC(C(=O)NCc2nccn2C)CCC1=O (centres undefined)"
unit_label = "%"
observed_result = 10.1

[[record]]
compound = "Cc1ccc(NC2CCCN(C(=O)c3cccs3)C2)cc1C (centres undefined)"
unit_label = "%"
observed_result = 22.5


Give me inhibition for each of these compounds, listed below.
1. CC(C)Cn1c(N)c(/C=N/NC(=O)c2ccc(Cl)cc2)c(=O)n(C)c1=O
2. O=C(O)c1cccc(N/N=C/c2cn(-c3ccccc3)nc2-c2cccs2)c1
3. COc1cccc2cc(C(=O)Oc3ccccc3)c(=O)oc12
4. CSc1ccc(CN2CCCCCC2)cc1
5. COc1cc(OC)c(OC)cc1CN1CCN(c2ccc(F)cc2)CC1
6. Cc1cc(Cl)ccc1NC(=O)CN1C(=O)NC2(CCCC2)C1=O
7. COc1cc(/C=C/C(=O)O)ccc1OCc1ccc([N+](=O)[O-])cc1

[14.9, 3.09, 15.6, 18.5, 10.3, 7.39, 7.48]

Please give inhibition for each item listed below.
1. CCN(Cc1ccccc1)C(=O)C1CCN(Cc2ccc(SC)cc2)CC1
2. COc1ccccc1CN1CCCCCC1
3. COCCCN(CC(=O)Nc1ccc(N2CCOCC2)cc1)S(=O)(=O)c1ccccc1
4. Cc1cccc(NC(=O)CNC(=O)c2ccc(-n3cncn3)c([N+](=O)[O-])c2)c1C

[23.2, 24.6, 5.72, 0.04]

Batch request: inhibition per item, same order as input.
1. Cc1c(Cl)cccc1NC(=S)NC1CCCC1
2. Cc1cc(C)c(OCCOCCN(C)C)c(Br)c1
3. O=C(O)c1cccc(N/N=C/c2ccc(-c3ccccc3)cc2)c1
4. C/C(=N\NC(=O)C1(C)CC1(Br)Br)c1cccc(NC(=O)c2ccc(C)o2)c1 (centres undefined)
5. CSc1nnc(-c2ccc(S(=O)(=O)N3CCCCC3)cc2)o1

[8.99, 12.7, -7.28, 5.18, 1]

----------
# System Name: Rac GTPase-activating protein 1 (Homo sapiens) (UniProt Q9H0H5)
# Experimental Details: blockers of MgcRacGAP-driven Rac1 GTP hydrolysis – biochemical, ADP Hunter fluorescence, primary and confirmatory, confirmation (AID 624330);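 note: fluorescence reports GDP produced by GAP-driven GTP hydrolysis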
# Measurement Parameters: MgcRacGAP-stimulated Rac1 GTP hydrolysis, at 30 µM, active compounds read high, GST-tagged Rac1 F28L mutant substrate
In all, about 340,000 compounds went through this assay and about 2,100 (0.62%) were called active. The list is a sample of the results. Entries with a potency or affinity are not part of this list.
I'd appreciate it if you could supply inhibition values for the items below.

Record excerpt, results attached:
[[record]]
compound = "COc1ccc(/C=N/NC(=S)NCC2CCCO2)cc1 (stereo not drawn)"
recorded_endpoint = "inhibition"
observed_result = "5.53% (inactive)"

[[record]]
compound = "CCOc1ccccc1NC(=O)C(OC(=O)c1ccccc1)c1ccccc1 (stereo not drawn)"
recorded_endpoint = "inhibition"
observed_result = "12.2% (inactive)"

[[record]]
compound = "O=C(c1cc(Cl)nc2ccccc12)N1CCCCC1"
recorded_endpoint = "inhibition"
observed_result = "3.41% (inactive)"

[[record]]
compound = "COc1ccc(Br)cc1CN1CCN(C(=O)c2cccc(F)c2)CC1"
recorded_endpoint = "inhibition"
observed_result = "26.9% (inactive)"

[[record]]
compound = "CCCOc1ccc(/C=N/NC(=O)CN2CCCCC2)cc1OCC"
recorded_endpoint = "inhibition"
observed_result = "0.56% (inactive)"


Can you give me inhibition for all of these, one by one?
1. CCOc1ccccc1NC(=O)c1ccc2nc[nH]c2c1
2. S=C(NCc1ccco1)N/N=C/c1ccncc1
3. CCOc1ccccc1NC(=O)C(OC(=O)C1CC1)c1ccccc1 (stereo not drawn)
4. O=C(O)C1CCN(Cc2ccccn2)CC1
5. CCOc1ccccc1NC(=O)C(NCC1CCCCC1)c1ccccc1 (stereo not drawn)
6. COc1ccc(C(=O)Nc2ccc(C(=O)Nc3nccs3)cc2)cc1[N+](=O)[O-]
7. COC(=O)c1nnc(-c2ccccc2)nc1OC

4.69% (inactive)
2.98% (inactive)
-2.99% (inactive)
4.54% (inactive)
4.44% (inactive)
10% (inactive)
4.64% (inactive)

For each of the compounds below, note its inhibition.
1. O=C(Nc1ccccc1N1CCCC1)C1CCN(S(=O)(=O)c2ccccc2)CC1
2. COc1ccc(/C=N/NC(=O)C(=O)N2CCCCCC2)cc1O
3. COc1ccc(Br)c(C(=O)OCC(=O)NC2CCCCCC2)c1
4. CN1C(=S)SC(N(O)C=C2C=CC(=O)C=C2)C1(C)C (stereo not drawn)
5. CCN(CC)S(=O)(=O)c1cccc(-c2n[nH]c(=S)n2/N=C/c2ccc(OC)cc2)c1
6. CC1=C(C#N)C(c2ccc(O)cc2)C(C#N)=C(C)N1
7. Cc1cccc(N2C(=O)C(O)=C(C(=O)c3cccs3)C2c2ccc(F)cc2)n1 (stereo not drawn)
8. O=C(c1cccc(F)c1)N1CCN(Cc2ccco2)CC1

1. 2.86% (inactive)
2. 11.9% (inactive)
3. 8.08% (inactive)
4. 24.5% (inactive)
5. 8.14% (inactive)
6. 11.8% (inactive)
7. 11.6% (inactive)
8. 24.7% (inactive)

Batch of 3 compounds: report inhibition for each.
1. C[C@]12c3[nH]c4cc(-c5ccco5)ccc4c3CCN1C(=O)[C@@H](CC(=O)NCc1cccc(C(F)(F)F)c1)C[C@@H]2C(=O)N1CCCCC1
2. COc1cc(/C=N/NC(=S)NCC2CCCO2)cc(OC)c1OC (stereo not drawn)
3. CCOc1ccccc1NC(=O)C(NCCc1ccc(OC)cc1)c1ccccc1 (stereo not drawn)

1. 10.5% (inactive)
2. 7.93% (inactive)
3. -0.19% (inactive)
